test system: SF-295 CNS; experiment: NCI tumour cell line growth inhibition, 48 h
readout-name: TGI (µM)
Form entry: value (µM) — number only.

Reference set, count: 5
- molecule: "COc1ccc(/C=C/C=C2C(=O)NC(=S)NC2=O)cc1"
  assayed-system: "SF-295 CNS"
  test-result: 29.9
- molecule: "COc1cc2c3c(c1OC)C1(C=CC(=O)C=C1)CC3N(C(=O)OC(C)(C)C(Cl)(Cl)Cl)CC2 (centres undefined)"
  assayed-system: "SF-295 CNS"
  test-result: 28.9
- molecule: "COC(=O)C1=C(O)C(C(=O)OC)[C@@]2(O)[C@@H](C(=O)OC)C(c3ccc(OC(=O)C(Cc4ccccc4)NC(C)=O)cc3)C[C@@H]1[C@@H]2C(=O)OC (some centres undefined)"
  assayed-system: "SF-295 CNS"
  test-result: 69.3
- molecule: "COC1=CC(=O)c2c(O)c3c(c(O)c2C1=O)CC(C)(O)OC3 (centres undefined)"
  assayed-system: "SF-295 CNS"
  test-result: 13.9
- molecule: "O=C(NCCc1ccc(F)cc1)c1cc(/C=C/c2cc(O)ccc2O)ccc1O"
  assayed-system: "SF-295 CNS"
  test-result: 36.2

Pending molecule:
Recorded TGI for CC(C)=CCC[C@@H](C)c1c(O)c(O)c(C)c2nc3ccccc3nc12 , please?
4.93
